# Test system: CAKI-1 renal
# assay summary: NCI tumour cell line growth inhibition, 48 h
measured endpoint: GI50

Return reported GI50; argument: COc1cc2c3c(n(CCCN=[N+]=[N-])c(=O)c2cc1OC)-c1ccccc1C3=O
2.13 µM

Return reported GI50; argument: Cc1cc(-c2nc3sc(C)cn3c2/C=N/N=C(N)N)c(C)s1
17.4 µM

Return reported GI50; argument: O=c1[nH]c(-c2ccc(Cl)c(Cl)c2)cn1-c1ccc(Cl)cc1
25.4 µM

Return reported GI50; argument: COc1cc(-n2cc(-c3ccc(Cl)cc3)n(-c3ccccc3)c2=O)cc(OC)c1OC
26.8 µM

Return reported GI50; argument: CN1CCN(C)C1c1ccc(C2N(C)CCN2C)cc1
> 100 µM

Return reported GI50; argument: COC(=O)c1c2c(c(C)[n+]([O-])c1C)C(=O)C(NCc1ccccc1)=CC2=O
2.84 µM

Return reported GI50; argument: Clc1ccc(-c2cnc3c(-c4ccnc(N5CCNCC5)c4)cnn3c2)cc1
1.9 µM

Return reported GI50; argument: CCOc1ccccc1/C=N\N=C(N/N=C/c1ccccc1OCC)N/N=C/c1ccccc1OCC
1.4 µM

Return reported GI50; argument: CC(C)(C)c1cc(C[P+](c2ccccc2)(c2ccccc2)c2ccccc2)cc(C(C)(C)C)c1O
2.64 µM

Return reported GI50; argument: COc1ccc(Nc2ncc(I)c(NCCCNC(=O)C3CCC3)n2)cc1
1.32 µM

Return reported GI50; argument: O=Cc1ccc(-c2ccc(-c3nc4ccccc4s3)cc2)o1
> 100 µM

Return reported GI50; argument: CCOc1ccc(-c2nc3ccc(-c4nc5ccc(N6CCN(C)CC6)cc5[nH]4)cc3[nH]2)cc1
0.555 µM

Return reported GI50; argument: COc1cc(CSc2nc3ccc(Cl)cc3c(=O)n2Cc2ccccc2)cc(OC)c1OC
3.19 µM

Return reported GI50; argument: CCCCN(CCCC)P(=O)(Oc1ccccc1)Oc1ccccc1
2.42 µM

Return reported GI50; argument: O=C(Nc1ccc(Cl)c(C(F)(F)F)c1)Nc1ccc(-c2cccnc2)cc1N1CCC(CO)CC1
2.32 µM

Return reported GI50; argument: COc1cc2c3c(n(CCCN=[N+]=[N-])c(=O)c2cc1OC)-c1ccc([N+](=O)[O-])cc1C3=O
> 100 µM

Return reported GI50; argument: CCCCCSc1ccc2nc(NC(=O)OCC)sc2c1
0.626 µM

Return reported GI50; argument: COc1cc2c3c(n(CCCN=[N+]=[N-])c(=O)c2cc1OC)-c1ccc(F)cc1C3=O
4.56 µM

* * *

# Test system: SNB-19 CNS
# assay summary: NCI tumour cell line growth inhibition, 48 h; in the data active = GI50 below about 0.43 µM; inactive = the rest
Allowed answers: 1 (active), -1 (inactive)

What is the recorded call for this molecule in the test? CCOc1ccccc1/C=N\N=C(N/N=C/c1ccccc1OCC)N/N=C/c1ccccc1OCC
-1

What is the recorded call for this molecule in the test? COc1cc(OC)c(C(=O)/C=C/c2ccc(C#N)cc2)c(OC)c1
-1

What is the recorded call for this molecule in the test? CCCCCN(CCCCC)CCC[C@@H](C)[C@H]1CC[C@H]2[C@@H]3[C@H](OCCCN)C[C@@H]4C[C@H](OCCCN)CC[C@]4(C)[C@H]3C[C@H](OCCCN)[C@]12C
-1

What is the recorded call for this molecule in the test? CC(=O)O[C@@H]1c2c(c3c(=O)c4cccc(O)c4c(=O)c=3c2=[N+]=[N-])[C@H](OC(C)=O)[C@@H](OC(C)=O)[C@]1(C)O
-1

What is the recorded call for this molecule in the test? CC[C@@]1(O)CC(OC2CC(N3CCOCC3)C(O)C(C)O2)c2c(O)c3c(c(O)c2[C@H]1O)C(=O)c1cccc(O)c1C3=O (some centres not stated)
1

What is the recorded call for this molecule in the test? Cc1ccc(/C(=N/NS(=O)(=O)c2cc(C)c(Cl)cc2Cl)Sc2cc(Cl)c(C)cc2S(N)(=O)=O)cc1
-1

What is the recorded call for this molecule in the test? CCOc1ccc(-c2nc3ccc(-c4nc5ccc(N6CCN(C)CC6)cc5[nH]4)cc3[nH]2)cc1
-1

* * *

# Test system: DU-145 prostate
# assay summary: NCI tumour cell line growth inhibition, 48 h; in the data active means GI50 below about 0.43 µM; inactive means the rest
Allowed answers: active, inactive

What is the recorded call for this compound in the test? COc1cc2c3c(n(CCCN=[N+]=[N-])c(=O)c2cc1OC)-c1ccc(F)cc1C3=O
inactive

What is the recorded call for this compound in the test? CCCCCN(CCCCC)CCC[C@@H](C)[C@H]1CC[C@H]2[C@@H]3[C@H](OCCCN)C[C@@H]4C[C@H](OCCCN)CC[C@]4(C)[C@H]3C[C@H](OCCCN)[C@]12C
inactive

What is the recorded call for this compound in the test? Clc1ccc(-c2cnc3c(-c4ccnc(N5CCNCC5)c4)cnn3c2)cc1
inactive

What is the recorded call for this compound in the test? Cc1[nH]c2ccccc2c1CO
active

What is the recorded call for this compound in the test? COc1cc(CSc2nc3ccc(Cl)cc3c(=O)n2Cc2ccccc2)cc(OC)c1OC
inactive

What is the recorded call for this compound in the test? COc1cc(-n2cc(-c3ccc(Cl)cc3)n(-c3ccccc3)c2=O)cc(OC)c1OC
inactive

What is the recorded call for this compound in the test? CCOc1ccc(-c2nc3ccc(-c4nc5ccc(N6CCN(C)CC6)cc5[nH]4)cc3[nH]2)cc1
active

What is the recorded call for this compound in the test? COc1ccc(OC)c(N2CC(O)=C(c3nc4ccccc4s3)C2=N)c1
inactive

What is the recorded call for this compound in the test? CCCCN(CCCC)P(=O)(Oc1ccccc1)Oc1ccccc1
inactive

What is the recorded call for this compound in the test? COc1cc2c(cc1OC)[C@@H]1C(=O)c3ccc4c(c3O[C@@H]1CO2)C[C@H](C(C)C)O4
inactive

* * *

# System: UACC-62 melanoma
# assay summary: NCI tumour cell line growth inhibition, 48 h; in the data active = GI50 below about 0.43 µM; inactive = the rest
Allowed answers: active, inactive

What is the recorded call for this compound in the test? COc1cc2c3c(n(CCCN=[N+]=[N-])c(=O)c2cc1OC)-c1ccc(F)cc1C3=O
inactive

What is the recorded call for this compound in the test? Cc1[nH]c2ccccc2c1CO
inactive

What is the recorded call for this compound in the test? COc1cccc(/C=N\NC(=O)c2ccncc2)c1O
inactive

What is the recorded call for this compound in the test? COc1cc(-n2cc(-c3ccc(Cl)cc3)n(-c3ccccc3)c2=O)cc(OC)c1OC
inactive

What is the recorded call for this compound in the test? Cn1cnc([N+](=O)[O-])c1S(=O)(=O)Oc1ccc(Cl)cc1
inactive

What is the recorded call for this compound in the test? COC(=O)c1c2c(c(C)[n+]([O-])c1C)C(=O)C(NCc1ccccc1)=CC2=O
inactive

What is the recorded call for this compound in the test? COc1cc2c3c(n(CCCN=[N+]=[N-])c(=O)c2cc1OC)-c1ccccc1C3=O
inactive

What is the recorded call for this compound in the test? N#Cc1c(N)nc2c(c1-c1ccc(Cl)cc1)COc1ccc(F)cc1-2
inactive

What is the recorded call for this compound in the test? Cc1cc(-c2nc3sc(C)cn3c2/C=N/N=C(N)N)c(C)s1
inactive

What is the recorded call for this compound in the test? Oc1nc(N2CCOCC2)sc1/C=C1\C=Nc2ccccc21
inactive

What is the recorded call for this compound in the test? OCC1OC(N2C=C(c3nc4ccccc4s3)C3C=CC=CC32)C(O)C(O)C1O (stereo not drawn)
inactive

What is the recorded call for this compound in the test? Clc1cc(Br)ccc1-c1ccc(CNCC2CCNCC2)o1
inactive

What is the recorded call for this compound in the test? CCCCN(CCCC)P(=O)(Oc1ccccc1)Oc1ccccc1
inactive

What is the recorded call for this compound in the test? CCCN(CCC)c1ccc(/C=N/NC(=O)c2cccnc2)c(C)c1
inactive

What is the recorded call for this compound in the test? Nc1nc(Sc2ccc([N+](=O)[O-])c3nonc23)c2ncn(C3OC(CO)C(O)C3O)c2n1 (stereo not drawn)
inactive

What is the recorded call for this compound in the test? COC(=O)CCc1n(Cc2ccc3ccccc3c2)c2ccccc2[n+]1Cc1ccc2ccccc2c1
active

What is the recorded call for this compound in the test? COc1cc2c3c(n(CCCN=[N+]=[N-])c(=O)c2cc1OC)-c1ccc([N+](=O)[O-])cc1C3=O
inactive

What is the recorded call for this compound in the test? CCOC(=O)c1c(NN2CCN(CC(F)(F)F)CC2)oc(/C=C2\C=Nc3ncccc32)c1O
inactive

What is the recorded call for this compound in the test? ClCc1ccccc1Cn1cnc2nc(Cl)nc(Cl)c21
inactive

What is the recorded call for this compound in the test? CC(=O)O[C@@H]1c2c(c3c(=O)c4cccc(O)c4c(=O)c=3c2=[N+]=[N-])[C@H](OC(C)=O)[C@@H](OC(C)=O)[C@]1(C)O
active

What is the recorded call for this compound in the test? COc1ccc(Sc2[nH]c(C=O)c3ccccc23)cc1
inactive

What is the recorded call for this compound in the test? CC(C)(C)c1cc(C[P+](c2ccccc2)(c2ccccc2)c2ccccc2)cc(C(C)(C)C)c1O
active

What is the recorded call for this compound in the test? CC(C)CCN(CCC(C)C)CC(=O)Nc1ccc(S(=O)(=O)c2ccc(NC(=O)CN(CCC(C)C)CCC(C)C)cc2)cc1
inactive

What is the recorded call for this compound in the test? COc1cc(OC)c(C(=O)/C=C/c2ccc(C#N)cc2)c(OC)c1
inactive

What is the recorded call for this compound in the test? Oc1ccc(N=Nc2ccc(Br)cc2)c(O)c1
inactive

What is the recorded call for this compound in the test? Cc1ccc(/C(=N/NS(=O)(=O)c2cc(C)c(Cl)cc2Cl)Sc2cc(Cl)c(C)cc2S(N)(=O)=O)cc1
inactive

What is the recorded call for this compound in the test? CCc1cc2c(c(OCC(F)(F)F)c(C(=O)NC3CCN(C(=O)CO)CC3)n2C)c(=O)n1CC(=O)c1ccccc1
inactive

What is the recorded call for this compound in the test? CCOC(=O)Cc1csc(NC(=O)C(OC(=O)c2ccc(Cl)cc2)c2ccccc2)n1 (stereo not drawn)
inactive
